studyTarget: GSK3α (GST-full length GSK3α) (Homo sapiens (Human))
Sequence (P49840 whole entry): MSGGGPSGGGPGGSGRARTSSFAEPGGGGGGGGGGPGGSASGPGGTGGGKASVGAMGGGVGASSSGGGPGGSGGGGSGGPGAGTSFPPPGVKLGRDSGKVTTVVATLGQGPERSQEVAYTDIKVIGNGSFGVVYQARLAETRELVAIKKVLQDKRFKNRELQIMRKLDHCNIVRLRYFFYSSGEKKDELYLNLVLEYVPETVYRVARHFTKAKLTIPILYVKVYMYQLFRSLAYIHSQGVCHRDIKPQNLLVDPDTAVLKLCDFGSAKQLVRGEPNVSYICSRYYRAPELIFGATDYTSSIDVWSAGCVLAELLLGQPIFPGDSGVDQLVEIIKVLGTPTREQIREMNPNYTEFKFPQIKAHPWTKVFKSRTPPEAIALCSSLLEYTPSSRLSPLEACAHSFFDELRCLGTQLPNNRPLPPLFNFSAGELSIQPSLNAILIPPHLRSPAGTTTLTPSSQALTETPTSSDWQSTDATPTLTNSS
assayInfo: GSK3α TR-FRET kinase assay
Assay type: biochemical
conditionInfo: read-out: GSK3-A (TR-FRET 1 mM ATP); GMean; IC50; 1 mM ATP; geometric mean
property: IC50

// worked examples, IC50 included
Cn1cncc1-c1cccc(C2(C)C3=C(CC(C)(C)CC3=O)Nc3n[nH]c(CC(C)(C)C)c32)c1 (stereo not drawn)    100 to 1000 nM
CC[C@]1(c2cccc(Oc3ncccn3)c2)C2=C(CC(C)(C)NC2=O)Nc2n[nH]c(C(F)(F)F)c21    ≤ 100 nM

Continue with the next compound.
Observed IC50, GSK3α (GST-full length GSK3α) (Homo sapiens (Human)), CCC1(c2cccc(-c3ccnc(C)c3)c2)C2=C(Nc3n[nH]cc31)C(F)C(C)(C)CC2=O (stereo not drawn) [Compound 946104] : 100 to 1000 nM

---

studyTarget: GSK3b (GST-full length GSK3b) (Homo sapiens (Human))
Sequence (P49841 whole entry): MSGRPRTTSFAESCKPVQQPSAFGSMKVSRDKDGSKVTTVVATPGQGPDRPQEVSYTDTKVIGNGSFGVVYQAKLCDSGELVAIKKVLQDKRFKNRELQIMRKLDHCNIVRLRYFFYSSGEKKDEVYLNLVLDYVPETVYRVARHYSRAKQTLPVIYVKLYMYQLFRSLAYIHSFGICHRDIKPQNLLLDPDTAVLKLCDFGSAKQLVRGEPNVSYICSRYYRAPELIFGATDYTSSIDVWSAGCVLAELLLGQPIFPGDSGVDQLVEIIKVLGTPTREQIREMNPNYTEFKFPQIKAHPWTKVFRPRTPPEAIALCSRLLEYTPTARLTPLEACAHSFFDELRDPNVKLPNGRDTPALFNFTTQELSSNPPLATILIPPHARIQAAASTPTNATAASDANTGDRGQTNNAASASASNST
assayInfo: GSK3b TR-FRET kinase assay
Type: biochemical
conditionInfo: 1 nM GSK3b, 2 μM ATP, 30 minute preincubation, Table 16; read-out: GSK3-B TR-FRET BIOCHEMICAL (TR-FRET)
property: IC50

CC[C@@]1(c2cccc(-c3ccncc3O)c2)C2=C(CC(C)(C)CC2=O)Nc2n[nH]cc21    > 5000 nM

Measured IC50 (GSK3b (GST-full length GSK3b) (Homo sapiens (Human))), entry `O=C1C2=C(Nc3n[nH]cc3C23CCOCC3)[C@H]2CC[C@@H]1C2` : 100 to 1000 nM

`C[C@H]1CCC[C@@]2(C1)C1=C(CC(C)(C)CC1=O)Nc1n[nH]cc12` on GSK3b (GST-full length GSK3b) (Homo sapiens (Human)) gives IC50 = 100 to 1000 nM

Note to self: IC50 of COC(=O)C1(c2ccccc2)CC2(C1)C1=C(CC(C)(C)CC1=O)Nc1n[nH]cc12 (centres unmarked) [Compound 942344] with GSK3b (GST-full length GSK3b) (Homo sapiens (Human)) was 100 to 1000 nM

Item CCC1(c2cccc(-c3ccncc3S(C)(=O)=O)c2)C2=C(CC(C)(C)CC2=O)Nc2n[nH]cc21 (centres unmarked) ; assay system GSK3b (GST-full length GSK3b) (Homo sapiens (Human)); IC50 reported as ≤ 100 nM

---

studyTarget: GSK3b (GST-full length GSK3b) (Homo sapiens (Human))
assayInfo: GSK3b TR-FRET kinase assay
Assay type: biochemical
conditionInfo: 1 nM GSK3b, 2 μM ATP, 30 minute preincubation; geometric mean; read-out: GSK3-B TR-FRET BIOCHEMICAL (TR-FRET); GMean; IC50
Description: TR-FRET Assay: The assay was performed in a white, 384 well, low volume, flat bottom plate (Grenier). After a 30 minute preincubation in assay buffer with the indicated concentration of compound, the kinase activity was initiated by the addition of the substrates. […] After 60 min at room temperature the plate was read on Envision plate reader using Ex: 340 nm, Em: 615 nm and […]. The normalized 665/615 Signal ratio versus log compound concentration was analyzed by XLFIT to yield IC50 values.
pIC50: −log10 of the molar value.
As shown below, each of these compounds has a reported pIC50 value.

// known answers, use as guide
CCC1(c2cccc(C(F)(F)F)c2)C2=C(CCN(c3cccnc3)C2=O)Nc2n[nH]cc21 (stereo not shown)    < 5.30
CC[C@]1(c2ccccc2)C2=C(C[C@@]3(CCOC3)CC2=O)Nc2n[nH]cc21    5.30 to 6.00
CCC1(c2ccccc2)C2=C(CC3(CC3)CC2=O)Nc2n[nH]cc21 (stereo not shown)    5.30 to 6.00
CCC1(c2cccc(-c3ccnc4c(Cl)cccc34)c2)C2=C(CC(C)(C)NC2=O)Nc2n[nH]cc21 (stereo not shown)    < 5.30
CC[C@]1(c2cccc(-c3ccnc(C)c3F)c2)C2=C(CC(C)(C)NC2=O)Nc2n[nH]cc21    6.00 to 7.00

pIC50 value, target or system GSK3b (GST-full length GSK3b) (Homo sapiens (Human)), for `CC[C@]1(c2ccccc2)C2=C(C[C@H](C(F)(F)F)CC2=O)Nc2n[nH]cc21` : < 5.78

Measured on GSK3b (GST-full length GSK3b) (Homo sapiens (Human)), CCC1(c2cccc(C(F)F)c2)C2=C(CC(C)(C)CC2=O)Nc2n[nH]cc21 (stereo not shown) [Compound 826716] has a documented pIC50 of < 5.30

---

The entries below come with measured pIC50 values attached.
studyTarget: UniProt P49840
assayInfo: GSK3α TR-FRET kinase assay
Format: biochemical
conditionInfo: 1 nM GSK3α, 4 μM ATP, 30 minute preincubation; read-out: GSK3-A TR-FRET BIOCHEMICAL (TR-FRET); IC50
Description: TR-FRET Assay: The assay was performed in a white, 384 well, low volume, flat bottom plate (Grenier). After a 30 minute preincubation in assay buffer with the indicated concentration of compound, the kinase activity was initiated by the addition of the substrates. […] After 60 min at room temperature the plate was read on Envision plate reader using Ex: 340 nm, Em: 615 nm and […]. The normalized 665/615 Signal ratio versus log compound concentration was analyzed by XLFIT to yield IC50 values.
pIC50: −log10 of the molar value.

CCC1(c2cccc(-c3ccnn3C)c2)C2=C(CC(C)(C)NC2=O)Nc2n[nH]cc21 (stereo not drawn)    ≥ 7.00
CC1(C)CC(=O)C2=C(C1)Nc1n[nH]cc1C21COC2(CN(C(=O)C3CC3(F)F)C2)C1 (stereo not drawn)    ≥ 7.00
CC1(C)CC2=C(C(=O)N1)C1(CCN(S(=O)(=O)c3cnn(C(C)(C)C)c3)CC1)c1c[nH]nc1N2    ≥ 7.00
Cc1ccc(C(=O)N2CC3(C2)CC2(CO3)C3=C(CC(C)(C)CC3=O)Nc3n[nH]cc32)cc1C (stereo not drawn)    ≥ 7.00
CCC1(c2cccc(-c3c(F)cncc3OC)c2)C2=C(CN(Cc3ccccc3)C2=O)Nc2n[nH]cc21 (stereo not drawn)    ≥ 7.00

The compound listed as CCC(C)C(=O)N1CC2(C1)CC1(CO2)C2=C(CC(C)(C)CC2=O)Nc2n[nH]cc21 (stereo not drawn) shows pIC50 equal to ≥ 7.00

# compound `CC1(C)CC(=O)C2=C(C1)Nc1n[nH]cc1[C@]21COC2(CCC2)C1` ; its pIC50 = 6.00 to 7.00

The compound identified as CCC1(c2cccc(-c3cc(C)nn3C)c2)C2=C(CC(C)(C)NC2=O)Nc2n[nH]cc21 (stereo not drawn) registered its pIC50 at ≥ 7.00

pIC50 measured on `CC[C@]1(c2cccc(-c3cnn(C)c3C)c2)C2=C(CC(C)(C)NC2=O)Nc2n[nH]c(C)c21` = < 5.30

Reported pIC50 for CCC1(c2cccc(C(F)(F)F)c2)C2=C(CC(C)(C)NC2=O)Nc2n[nH]cc21 (stereo not drawn) was ≥ 7.00

According to the records, this compound CC1(C)CC(=O)C2=C(C1)Nc1n[nH]cc1C21COC2(CN(C(=O)CC3CCCCC3)C2)C1 (stereo not drawn) displays pIC50 of ≥ 7.00

Recorded pIC50 (compound CC(=O)N1CC2(C1)CC1(CO2)C2=C(CC(C)(C)CC2=O)Nc2n[nH]cc21 (stereo not drawn) ): ≥ 7.00

---

Listed next: entries and their corresponding IC50.
studyTarget: GSK3α (GST-full length GSK3α) (Homo sapiens (Human))
assayInfo: GSK3α TR-FRET kinase assay
Format: biochemical
conditionInfo: 1 nM GSK3α, 4 μM ATP, 30 minute preincubation, Table 16; read-out: GSK3-A TR-FRET BIOCHEMICAL (TR-FRET)

Recorded IC50, per entry:
COc1cccc(S(=O)(=O)N2CC[C@@]3(C2)C2=C(CC(C)(C)CC2=O)Nc2n[nH]cc23)c1    ≤ 100 nM
CC1(C)CC(=O)C2=C(C1)Nc1n[nH]cc1C21CCN(S(=O)(=O)c2cccc3c2CCCC3)CC1    ≤ 100 nM
CC1(C)CC(=O)C2=C(C1)Nc1n[nH]cc1C21CCN(S(=O)(=O)c2ccccc2F)CC1    ≤ 100 nM
C[C@@H]1CCC[C@@]2(C1)C1=C(CC(C)(C)CC1=O)Nc1n[nH]cc12 [Compound 893320]    ≤ 100 nM

// recorded IC50 for CCC1(c2cccc(C(F)(F)F)c2)C2=C(CN(C)C2=O)Nc2n[nH]cc21 (stereo not shown) : 100 to 1000 nM

Entry under test: `CC1(C)CC(=O)C2=C(C1)Nc1n[nH]cc1C21CCCCCC1` . Its IC50 was 100 to 1000 nM

IC50 for `Cc1cc(S(=O)(=O)N2CCC3(CC2)C2=C(CC(C)(C)CC2=O)Nc2n[nH]cc23)c(C)s1` is ≤ 100 nM

The origin of these recorded values is patent US20250313563A1.
